Molecular target: human kinase Mps-1 (Homo sapiens, UniProt P33981)
Construct: N-terminally GST-tagged human full length recombinant Mps-1 kinase; GST (N); purchased Invitrogen, Karslruhe, Germany PV4071
Sequence (P33981 1-857): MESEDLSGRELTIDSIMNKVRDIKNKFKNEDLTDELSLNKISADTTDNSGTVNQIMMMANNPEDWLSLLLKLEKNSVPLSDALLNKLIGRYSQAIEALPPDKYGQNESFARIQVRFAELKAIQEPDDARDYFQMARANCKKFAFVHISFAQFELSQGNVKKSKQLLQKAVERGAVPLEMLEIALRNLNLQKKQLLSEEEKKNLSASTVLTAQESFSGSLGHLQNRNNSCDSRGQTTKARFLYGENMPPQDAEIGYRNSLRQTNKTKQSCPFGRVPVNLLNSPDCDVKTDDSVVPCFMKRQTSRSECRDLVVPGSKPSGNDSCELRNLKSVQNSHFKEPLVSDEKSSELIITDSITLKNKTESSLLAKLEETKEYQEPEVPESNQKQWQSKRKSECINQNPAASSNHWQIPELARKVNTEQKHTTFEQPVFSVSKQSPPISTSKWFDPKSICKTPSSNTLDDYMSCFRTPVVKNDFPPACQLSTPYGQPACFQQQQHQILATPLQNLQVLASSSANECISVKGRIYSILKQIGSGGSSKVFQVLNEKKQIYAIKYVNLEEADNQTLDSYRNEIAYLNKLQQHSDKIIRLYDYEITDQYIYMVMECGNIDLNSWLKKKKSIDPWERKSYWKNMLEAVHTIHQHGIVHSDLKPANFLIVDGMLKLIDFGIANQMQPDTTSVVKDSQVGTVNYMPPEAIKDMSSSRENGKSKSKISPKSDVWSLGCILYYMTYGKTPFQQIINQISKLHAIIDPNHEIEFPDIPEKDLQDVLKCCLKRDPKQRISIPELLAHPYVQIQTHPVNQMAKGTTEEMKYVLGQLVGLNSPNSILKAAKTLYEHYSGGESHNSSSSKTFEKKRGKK
Assay: Mps-1 kinase assay (TR-FRET)
Format: biochemical
Conditions: Mps1 IC50 [nM], N-terminally GST-tagged human full length recombinant Mps-1; 10 μM ATP; 1 μM biotinylated peptide substrate; 60 min at 22° C.
IC50 overview
Express your answer as a number followed by its unit.

1) O=C(NC1CC1)c1ccc(-c2cnc3c(NCC4CCCO4)nccn23)cc1O (centres unmarked)	36.3 nM
2) Cc1cc(-c2cnc3c(NCCCO)nccn23)ccc1C(=O)NC1CC1	124 nM
3) COCCNc1nccn2c(-c3ccc(C(=O)NC4CC4)cc3)cnc12	272 nM
4) O=C(NC1CC1)c1ccc(-c2cnc3c(NCCC(F)(F)F)nccn23)cc1O	22.3 nM

Continue with the compound presented below.
*Q* Given the compound `O=C(NC1CC1)c1ccc(-c2cnc3c(NCCCO)nccn23)cc1O` , write its reported IC50.
*A* 93.1 nM

Origin of measurements: patent US20130303532A1
